System: Escherichia coli
Assay: Antibacterial activity against Escherichia coli ATCC 25922 assessed as inhibition of bacterial growth by continuous dilution method
Assay type: functional
Decision: MIC beneath 20 µg/mL gives Condition met; MIC meeting or exceeding 20 µg/mL gives Condition not met.

Recorded results for 4 compounds are shown here.
{"MOLECULE": "C=CCO/N=C(/CS(=O)(=O)c1ccc(N)cc1)c1nccs1", "LABEL_CLASS": "Condition met"}
{"MOLECULE": "CC(=O)Nc1ccc(S(=O)(=O)C/C(=N/NC(=O)Cc2ccccc2)c2nccs2)cc1", "LABEL_CLASS": "Condition not met"}
{"MOLECULE": "CCCCCCO/N=C(/CS(=O)(=O)c1ccc(NC(C)=O)cc1)c1nccs1", "LABEL_CLASS": "Condition met"}
{"MOLECULE": "CCCCCCO/N=C(/CS(=O)(=O)c1ccc(N)cc1)c1nccs1", "LABEL_CLASS": "Condition met"}

For CC(=O)Nc1ccc(S(=O)(=O)/C(=C\c2ccc(C)cc2)C(=O)c2nccs2)cc1 , is the recorded MIC below the cut-off of 20 µg/mL? Condition not met

For Nc1ccc(S(=O)(=O)C/C(=N/OCc2ccc(Cl)cc2)c2nccs2)cc1 , is the recorded MIC below the cut-off of 20 µg/mL? Condition met

For CC(=O)Nc1ccc(S(=O)(=O)C/C(=N/Nc2ccc([N+](=O)[O-])cc2)c2nccs2)cc1 , is the recorded MIC below the cut-off of 20 µg/mL? Condition not met

For COc1ccc(/C=C(/C(=O)c2nccs2)S(=O)(=O)c2ccc(NC(C)=O)cc2)cc1 , is the recorded MIC below the cut-off of 20 µg/mL? Condition not met
